Experiment: In vitro metabolic stability in mouse liver microsomes
Assay type: in vitro ADME
Details: 1 μM; 0.5 mg/mL microsomes; up to 60 min
# metabolic stability (t1/2, min) vs MLM listing for each entry below

The following compounds have reported results that may help.
CC1=C/C(=C\NC23CC4CC(CC(C4)C2)C3)N=C1c1ccc[nH]1.Cl [compound 88] ... 17.6 min
COC1=CC(c2ccc(-c3ccc(OC)cc3)[nH]2)=N/C1=C\NC1CCCCCC1.Cl [compound 118] ... > 60.0 min
Cl.Fc1cc(F)cc(OC2=CC(c3ccc[nH]3)=N/C2=C\NC23CC4CC(CC(C4)C2)C3)c1 [compound 74] ... > 60.0 min
C(/NCC1CCCCCC1)=C1/N=C(c2ccc[nH]2)C2=C1CCCC2.Cl [compound 104] ... > 60.0 min
CCCCCCN/C=C1\N=C(c2ccc[nH]2)C=C1OC.Cl [compound 42] ... 10.2 min

# input May I ask what metabolic stability (t1/2, min) vs MLM has been recorded for Cc1ccc(Oc2ccc(N/C=C3\N=C(c4ccc[nH]4)C4=C3CCCC4)cc2)cc1.Cl [compound 109] ?
# output > 60.0 min

# input May I ask what metabolic stability (t1/2, min) vs MLM has been recorded for CC1=C(C)/C(=C/NC2CCCCCC2)N=C1c1ccc(CC(C)C)[nH]1.Cl [compound 111] ?
# output > 60.0 min
